- Test system: C. elegans
- EXPERIMENTAL_PROTOCOL: microbe, parasite or virus in culture
- CONDITION_INFO: Caenorhabditis elegans, 0 h, read-out: Percentage of motility inhibition 0 h, Table S2, C. elegans SS assay, 110 μM, 0 h, averages of 4 data points
Kindly supply the reported inhibition at 110 µM values for the records listed here.
Number in %, nothing else.

// inhibition at 110 µM lookup, compound = C[C@@H]1CC[C@@]2(NC1)O[C@H]1C[C@H]3[C@@H]4CC=C5C[C@@H](O)CC[C@]5(C)[C@H]4CC[C@]3(C)[C@H]1[C@@H]2C , result: 12

// inhibition at 110 µM lookup, compound = C=C[C@]1(C)C[C@@H](OC(=O)CO)[C@]2(C)[C@H](C)CC[C@]3(CCC(=O)[C@H]32)[C@@H](C)[C@@H]1O , result: 33

// inhibition at 110 µM lookup, compound = Cc1oc(=O)oc1COC(=O)C1=C([C@H]2CCCO2)S[C@@H]2[C@@H]([C@@H](C)O)C(=O)N12 [Faropenem daloxate] , result: 5

// inhibition at 110 µM lookup, compound = COc1ccccc1O , result: 6

// inhibition at 110 µM lookup, compound = C[C@@H]1CC[C@]2(C(=O)O[C@@H]3O[C@H](CO)[C@@H](O)[C@H](O)[C@H]3O)CC[C@]3(C)C(=CC[C@@H]4[C@@]5(C)CC[C@H](O)[C@@](C)(CO)[C@@H]5CC[C@]43C)[C@@H]2[C@]1(C)O [Pedunculoside] , result: 14

// inhibition at 110 µM lookup, compound = CC1=CC[C@@H](C(C)(C)O)CC1 , result: 22

// inhibition at 110 µM lookup, compound = O=c1ccc2ccccc2o1 , result: 12

// inhibition at 110 µM lookup, compound = N[C@H]1C(O)O[C@H](CO)[C@@H](O)[C@@H]1O (stereo partly drawn) , result: 8

// inhibition at 110 µM lookup, compound = C=CC(C)(O)CCC=C(C)CCC=C(C)C (mixture of isomers) , result: 7
